biological target: purified human IDO protein (Homo sapiens); construct: 2 extra amino acids (linker from the BglII cloning site of pQE70); made in house; host or cells: E. coli M15(pREP4) with plasmid pQE70-hIDO; experiment: Enzymatic IDO assay (kynurenine production, absorbance at 480 nm); format: biochemical; conditions: recombinant human IDO; values reported in ranges; read-out: hIDO IC50
Sequence (P14902 whole entry P110S/E119G): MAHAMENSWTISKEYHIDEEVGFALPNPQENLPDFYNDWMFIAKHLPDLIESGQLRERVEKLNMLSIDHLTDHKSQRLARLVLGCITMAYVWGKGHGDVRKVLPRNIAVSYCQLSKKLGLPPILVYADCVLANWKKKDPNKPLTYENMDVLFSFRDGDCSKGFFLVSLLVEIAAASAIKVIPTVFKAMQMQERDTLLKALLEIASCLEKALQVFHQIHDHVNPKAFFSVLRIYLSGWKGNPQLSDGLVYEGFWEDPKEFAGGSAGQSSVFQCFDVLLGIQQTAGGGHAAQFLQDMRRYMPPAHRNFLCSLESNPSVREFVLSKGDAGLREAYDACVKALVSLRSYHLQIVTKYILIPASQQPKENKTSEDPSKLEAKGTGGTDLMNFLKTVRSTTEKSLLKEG
RECORDED_ENDPOINT: IC50

Below is a list of compounds. For each, state its recorded IC50.
1. CC(COc1ccccc1-c1c[nH]cn1)c1coc2ccccc12 (stereo not drawn)
2. CC(=O)NC(C(=O)Nc1ccc(CCOc2ccccc2-c2c[nH]cn2)c(Cl)c1)C1CCOCC1 (stereo not drawn)
3. c1ccc2oc(-c3c[nH]cn3)cc2c1
4. Clc1ccccc1CCOc1ccc(Br)cc1-c1c[nH]cn1
5. Oc1cccc(OCCc2cccc(Cl)c2)c1-c1cnc[nH]1
6. CC(O)(COc1ccccc1-c1c[nH]cn1)c1cccs1 (stereo not drawn)
7. O=C(COc1ccccc1-c1c[nH]cn1)c1ccc2ccsc2c1

result:
1: 1 to 10 µM; 2: < 1 µM; 3: > 100 µM; 4: 10 to 100 µM; 5: 1 to 10 µM; 6: 10 to 100 µM; 7: 1 to 10 µM

Answer for every listed entry: what is its IC50? The entries follow.
1. c1cnc2c(-c3c[nH]cn3)cccc2c1
2. O=C(c1cccs1)N1CCC(CCOc2ccccc2-c2c[nH]cn2)CC1
3. O=C(Nc1ccc(CCOc2ccccc2-c2c[nH]cn2)cc1)c1ccc[nH]c1=O

result:
> 100 µM
1 to 10 µM
1 to 10 µM

Lab note: each compound below needs its IC50 filled in.
1. CCOC(=O)c1ccc(COc2ccccc2-c2c[nH]cn2)cc1
2. Oc1cccc(OCCCc2ccccc2)c1-c1cnc[nH]1
3. Oc1c(-c2c[nH]cn2)cc(Cl)c2cccnc12
4. Oc1ccc(Cl)c(OCCC2CCCCC2)c1-c1cnc[nH]1

result:
1: 10 to 100 µM; 2: 10 to 100 µM; 3: > 100 µM; 4: 1 to 10 µM

Record IC50 for all entries; do not skip any.
1. O=C(Cc1cncnc1)Nc1ccc(CCOc2ccccc2-c2c[nH]cn2)cc1
2. c1cc(-c2c[nH]cn2)ccn1
3. Clc1ccc(OCc2ccccc2)c(-c2cncn2C2CCCCC2)c1
4. CC(C)(C)CCOc1ccc(O)cc1-c1c[nH]cn1

result:
1. 1 to 10 µM
2. > 100 µM
3. > 100 µM
4. 10 to 100 µM
